Cited source for all entries: patent US20250101041A1

Measured pEC50 of individual entries
# TARGET_UNDER_TEST: human mAChR M4 (Homo sapiens)
# Construct: expressed in transfected cells; host or cells: CHO-K1 (American Type Culture Collection), stably expressing hM4 and Gqi5
# Sequence (P08173 whole entry): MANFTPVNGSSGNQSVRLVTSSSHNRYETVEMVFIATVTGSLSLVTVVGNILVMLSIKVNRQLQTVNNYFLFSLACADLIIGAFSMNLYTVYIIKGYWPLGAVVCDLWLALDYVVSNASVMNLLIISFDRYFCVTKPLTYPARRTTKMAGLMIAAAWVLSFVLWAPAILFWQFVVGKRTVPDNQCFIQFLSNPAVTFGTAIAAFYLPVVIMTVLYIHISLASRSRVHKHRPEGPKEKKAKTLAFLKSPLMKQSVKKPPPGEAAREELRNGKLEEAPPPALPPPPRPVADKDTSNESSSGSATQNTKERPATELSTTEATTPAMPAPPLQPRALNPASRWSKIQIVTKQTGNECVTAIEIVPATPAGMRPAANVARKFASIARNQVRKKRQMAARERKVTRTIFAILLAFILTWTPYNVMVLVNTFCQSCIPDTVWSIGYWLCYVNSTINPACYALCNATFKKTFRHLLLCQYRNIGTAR
# ASSAY_PROTOCOL: mAChR M4 cell-based functional assay: calcium mobilization (Fluo-4, FDSS), potentiation of EC20 acetylcholine response in hM4-Gqi5 CHO-K1 cells
# CONDITIONS_USED: potentiation of EC20 acetylcholine response, calcium mobilization, human M4
On this scale, pEC50 is minus log10 of a concentration expressed in M (mol/L).

Some entries whose results are on file:
| ITEM_SMILES | MEASURED_ENDPOINT | VALUE |
| --- | --- | --- |
| Cc1c(N2CCc3ncc(-c4cnn(C)c4C)cc3C2)nn2c(=O)ccnc2c1C | pEC50 | 6.88 |
| Cc1c(N2CCc3ncc(N4CCO[C@H](C)C4)cc3C2)nn2c(=O)ccnc2c1C | pEC50 | 7.08 |

Input: I have this compound here, `Cc1cc(=O)n2nc(N3CCc4ncc(-c5cnccn5)cc4C3)c(C)cc2n1` , and I need its recorded pEC50.
Output: 7.01
